Hey, just so you know, these numbers are from the supplement of paper PMC10567573.

B1: PCDHGA10 (parent)
chain: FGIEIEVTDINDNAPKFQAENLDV

Variants of: B1
Experiment: protein stability index of a GFP-peptide fusion (GPS, HEK-293T) (PSI 1-6); higher = more stable;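 note: lentivirally expressed fusions sorted by FACS into six bins by GFP to DsRed ratio, PSI derived from sequencing read proportions per bin multiplied by bin number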
Settings: c terminus: a fixed tail appended
Listing of entries alongside the reported protein stability index.

| mutant | protein stability index |
| --- | --- |
| E20T | 2.34 |
| D9R | 2.04 |
| N21G | 2.83 |
| N11S | 2.84 |
| V24W | 2.81 |
| E6M | 1.41 |
| V24G | 3.7 |
| I5H | 4.91 |
| F1N | 4.69 |
| V24Y | 2.93 |
| A19N | 2.82 |
| K16Y | 2.18 |
| V7S | 4.63 |
| D9V | 2.58 |
| E4P | 4.33 |
| I5N | 5.05 |
| G2K | 1.52 |
| D12F | 1.94 |
| D23S | 2.06 |
| F1E | 4.8 |
| F17A | 4.12 |
| V7M | 3.18 |
| K16H | 2.76 |
| L22W | 2.53 |
| A19S | 2.62 |
| K16A | 2.53 |
| V7F | 2.25 |
| D12A | 2.28 |
| D9N | 2.73 |
| F17N | 4.15 |
| D9I | 1.32 |
| K16F | 2.21 |
